Target: UniProt P00352
Assay: ALDH1A1 enzymatic assay (in vitro)
Type: biochemical
Settings: ALDH1A1 enzyme 20 nM, NAD+ 1 mM, propionaldehyde 80 μM; read-out: ALDH1A1 IC50
IC50 values for the molecules below.

- smi: "N#CC1(c2ccc(-c3c(C(=O)N4CC(O)C4)cnc4ccc(F)cc34)cc2)CC1"
  IC50: "1000 to 10000 nM"
- smi: "CCS(=O)(=O)N1CCN(C(=O)c2cnc3c(cnn3C)c2N2CCC(C)(C#N)CC2)CC1"
  IC50: "< 500 nM"
- smi: "CCNC(=O)N1CCN(C(=O)c2cnc3cc(OC)ccc3c2N2CCC3(CC2)OCCO3)CC1"
  IC50: "< 500 nM"
- smi: "O=C(c1cnc2ccc(F)cc2c1N1CCC2(CC1)OCCO2)N1CCN(S(=O)(=O)N2CCCC2)CC1"
  IC50: "< 500 nM"
- smi: "CNC(=O)C1CCN(C(=O)c2cnc3ccc(F)cc3c2N2CCC(C#N)(c3ccccc3)CC2)CC1"
  IC50: "< 500 nM"
- smi: "COc1ccc2c(N3CCC(C)(C#N)CC3)c(C(=O)N3CCN(S(=O)(=O)C4CC4)CC3)cnc2c1"
  IC50: "< 500 nM"
- smi: "CS(=O)(=O)C1CCN(C(=O)c2cnc3cc(F)c(F)cc3c2N2CCC3(CC2)OCCO3)CC1"
  IC50: "< 500 nM"
- smi: "COc1ccc2ncc(C(=O)N3CCN(C(=O)C4CC4)CC3)c(N3CCN(C(C)=O)CC3)c2c1"
  IC50: "> 10000 nM"
- smi: "CN(C)C(=O)N1CCN(C(=O)c2cnc3ccsc3c2-c2ccc(C3(C#N)CC3)cc2)CC1"
  IC50: "< 500 nM"
- smi: "CS(=O)(=O)N1CCN(C(=O)c2cnc3ccc(F)cc3c2N2CCC(CC#N)CC2)CC1"
  IC50: "1000 to 10000 nM"
- smi: "CC1(C#N)CCN(c2c(C(=O)N3CCC(C(=O)C4CC4)CC3)cnc3cc(F)c(F)cc23)CC1"
  IC50: "< 500 nM"
- smi: "CN(C)S(=O)(=O)N1CCN(C(=O)c2cnc3ccsc3c2-c2ccc(C3(C#N)CC3)cc2)CC1"
  IC50: "< 500 nM"
- smi: "CN(C)S(=O)(=O)N1CCN(C(=O)c2cnc3ccc(F)cc3c2N2CCC3(CC2)OCCO3)CC1"
  IC50: "< 500 nM"
- smi: "O=C(c1cnc2ccc(F)cc2c1N1CCC2(CC1)Cc1ccccc1C2=O)N1CCN(C(=O)C2CC2)CC1"
  IC50: "1000 to 10000 nM"
- smi: "COc1cc2ncc(C(=O)N3CCN(C(C)=O)CC3)c(N3CCC(C)(C#N)CC3)c2cc1OC"
  IC50: "< 500 nM"
- smi: "CC(C)(C#N)c1ccc(-c2c(C(=O)N3CCC(S(C)(=O)=O)CC3)cnc3ccc(F)cc23)cc1"
  IC50: "< 500 nM"

----------
Target: ALDH1A1 enzyme (Homo sapiens, UniProt P00352)
Sequence (P00352 1-501): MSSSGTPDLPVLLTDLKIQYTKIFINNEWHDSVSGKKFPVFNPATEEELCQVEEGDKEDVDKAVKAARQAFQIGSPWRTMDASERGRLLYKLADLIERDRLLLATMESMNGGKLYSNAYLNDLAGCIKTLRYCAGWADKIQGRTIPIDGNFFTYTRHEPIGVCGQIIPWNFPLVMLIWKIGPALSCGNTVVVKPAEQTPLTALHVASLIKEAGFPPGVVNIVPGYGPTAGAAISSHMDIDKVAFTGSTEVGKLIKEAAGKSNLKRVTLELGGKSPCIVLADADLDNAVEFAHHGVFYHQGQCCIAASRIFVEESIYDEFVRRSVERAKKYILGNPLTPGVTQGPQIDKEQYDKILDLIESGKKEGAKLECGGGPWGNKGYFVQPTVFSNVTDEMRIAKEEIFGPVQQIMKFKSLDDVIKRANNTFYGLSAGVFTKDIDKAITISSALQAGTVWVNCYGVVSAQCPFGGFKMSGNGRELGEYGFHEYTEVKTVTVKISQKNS
Assay: ALDH1A1 enzymatic assay (in vitro)
Format: biochemical
Conditions: ALDH1A1 enzyme 20 nM, NAD+ 1 mM, propionaldehyde 80 μM; read-out: ALDH1A1 IC50
Counter-ions that a name gives are not always drawn.

- compound: "CCN(CC)C(=O)N1CCN(C(=O)c2cnc3ccc(F)cc3c2N2CCC(C)(C#N)CC2)CC1 [Example 154]"
  IC50: "< 500 nM"
- compound: "COc1ccc2ncc(C(=O)N3CCN(C4CCCC4)CC3)c(N3CCC4(CC3)OCCO4)c2c1 [Example 9, TFA]"
  IC50: "1000 to 10000 nM"
- compound: "CS(=O)(=O)C1CCN(C(=O)c2cnc3ccc(F)cc3c2N2CCC(C#N)(c3ccccc3)CC2)CC1 [Example 269]"
  IC50: "< 500 nM"
- compound: "CS(=O)(=O)N1CCN(C(=O)c2cnc3ccc(F)cc3c2N2CCC3(CC2)OCCO3)CC1 [Example 52]"
  IC50: "< 500 nM"
